Test system: UACC-257 melanoma
Assay: NCI tumour cell line growth inhibition, 48 h
As shown below, each of these molecules has a reported TGI value.

Molecule: Cc1cc(N2CCOCC2)nc(N(CCNc2ccnc3cc(Cl)ccc23)Cc2ccco2)n1
Qualifier symbol: =
TGI [µM]: 16.5

Molecule: Fc1cc(C2=C[C@H](c3ccc4c(c3)OCO4)NC(=S)N2)c(Cl)cc1Cl
Qualifier symbol: =
TGI [µM]: 83.6

Molecule: COC(=O)C(CCC1(C)OCCO1)C(C)=O (stereo unspecified)
Qualifier symbol: >
TGI [µM]: 100

Molecule: COc1cc(S(=O)(=O)N/N=C/C=C/c2ccccc2)c(OC)cc1NC(C)=O
Qualifier symbol: >
TGI [µM]: 100

Molecule: C[C@]1(O)CC(=O)c2c(c(-c3ccc4cc5c(c(O)c4c3O)C(=O)C[C@@](C)(O)C5)c3cccc(O)c3c2O)C1
Qualifier symbol: =
TGI [µM]: 30.8

Molecule: O=C(c1ccsc1)c1cc2c(s1)C(=O)c1ccsc1C2=O
Qualifier symbol: =
TGI [µM]: 0.324

Molecule: O=C(O[C@H]1CN[C@H](C#Cc2cc3ncnc(Nc4ccc(Cc5ccccc5)cc4)c3s2)C1)N1CCOCC1
Qualifier symbol: >
TGI [µM]: 22.1

Molecule: CCN(CC)CC(O)CNc1ccc(NCC(O)CCl)c2c1C(=O)c1ccccc1C2=O (stereo unspecified)
Qualifier symbol: =
TGI [µM]: 16

Molecule: COC(=O)C1C2CC3C(OC(=O)C31)C2I (stereo unspecified)
Qualifier symbol: >
TGI [µM]: 100

Molecule: CC(C)N(CCCNc1c2ccccc2nc2cccc([N+](=O)[O-])c12)C(C)C
Qualifier symbol: <
TGI [µM]: 0.0508

Molecule: O=[n+]1cnn([O-])c2ccccc21
Qualifier symbol: =
TGI [µM]: 37.1

Molecule: NNC(=O)CC(=O)Nc1ccc(C(=O)O)cc1
Qualifier symbol: >
TGI [µM]: 100

Molecule: COC(OC)C1(c2ccccc2)Oc2ccccc2C1=O (stereo unspecified)
Qualifier symbol: >
TGI [µM]: 100

Molecule: CCOC(=O)NC(=O)c1cn(CCCCCCCCCCC(=O)N2CCN(CCn3cc(C(=O)NC(=O)OCC)c(=O)[nH]c3=O)CC2)c(=O)[nH]c1=O
Qualifier symbol: >
TGI [µM]: 100

Molecule: O=CC(O)C(O)C(O)COc1cc(CO)cc2c1C(=O)c1ccccc1C2=O (stereo unspecified)
Qualifier symbol: >
TGI [µM]: 100

Molecule: CCOP(=O)(OCC)/C(=C/c1ccccc1)CC(C)=O
Qualifier symbol: >
TGI [µM]: 100

Molecule: CCC[CH2][Sn]([CH2]CCC)([O]C(=O)c1cc(OC)c(OC)c(OC)c1)[O]C(=O)c1cc(OC)c(OC)c(OC)c1
Qualifier symbol: =
TGI [µM]: 2.47

Molecule: NC(CCc1ccccc1)(C(=O)O)c1ccccc1 (stereo unspecified)
Qualifier symbol: >
TGI [µM]: 100

Molecule: CCOc1ccc(/C=N/Nc2cc(C)nc3ccc(Cl)cc23)cc1
Qualifier symbol: =
TGI [µM]: 3.32

Molecule: CCN(CC)CCC(=O)c1ccc(Oc2ccc(C)cc2)cc1
Qualifier symbol: =
TGI [µM]: 34.4

Molecule: CC(C)=CCC/C(C)=C/CC/C(C)=C/[C@@H]1[C@@H](CO)[C@]1(C)CC/C=C(\C)CCC=C(C)C
Qualifier symbol: >
TGI [µM]: 100

----------
Tested on: OVCAR-8 ovarian
Experiment: NCI tumour cell line growth inhibition, 48 h; in the data active = GI50 below about 0.43 µM; inactive = the rest
Outcome codes: 1.0 for active, 0.0 for inactive

Chemical string: C=C1C(=O)O[C@H]2[C@H]1CC/C(COC(=O)NCc1c[nH]c3ccc(OC)cc13)=C\CC[C@@]1(C)O[C@@H]21
Test target: OVCAR-8 ovarian
Group label: 0.0
//
Chemical string: Clc1cccc(Cn2cc(Cc3cn(Cc4cccc(Cl)c4)c4ccccc34)c3ccccc32)c1
Test target: OVCAR-8 ovarian
Group label: 0.0
//
Chemical string: N#Cc1cc(-c2ccccc2)[nH]c1-c1nccc2ccccc12
Test target: OVCAR-8 ovarian
Group label: 0.0
//
Chemical string: Nc1nn(C(=O)Nc2ccc(Cc3ccccc3)cc2)c2ccc(Cl)cc12
Test target: OVCAR-8 ovarian
Group label: 0.0
//
Chemical string: Cc1ccccc1NC(=O)N/C(N)=N/c1nc2ccccc2s1
Test target: OVCAR-8 ovarian
Group label: 1.0
//
Chemical string: O=C(/C=C/c1ccccc1Cl)c1ccc(O)cc1
Test target: OVCAR-8 ovarian
Group label: 0.0
//
Chemical string: CC(C)[C@@H]1NC(=O)[C@]2(C)CSC(=N2)c2csc(n2)CNC(=O)C[C@@H](/C=C/CCS)OC1=O
Test target: OVCAR-8 ovarian
Group label: 1.0
//
Chemical string: O=C(Nc1cccc(-n2cc(-c3ccncc3)c(-c3cc(O)cc(Cl)c3)n2)c1)Nc1ccc(Cl)c(Cl)c1
Test target: OVCAR-8 ovarian
Group label: 0.0
//
Chemical string: Nc1cccc(-c2nc3sccn3c2-c2ccnc(NCCCNS(=O)(=O)c3ccc(C(F)(F)F)cc3)n2)c1
Test target: OVCAR-8 ovarian
Group label: 0.0

----------
Tested on: NCI-H460 lung
As shown below, each of these compounds has a reported GI50 value.
Assay readout: GI50

Compound: CNC(=O)c1cc(Oc2ccc3nc(NC(=O)c4cc(C(F)(F)F)cc(C(F)(F)F)c4)sc3c2)ccn1
Assay readout: GI50
Val: 3.83 µM

Compound: O=C(Nc1cccnc1)c1cccs1
Assay readout: GI50
Val: 6.6 µM

Compound: Clc1ccc(N/N=C/c2ccccn2)nc1
Assay readout: GI50
Val: 0.379 µM

Compound: O=C(/C=C/c1ccccc1O)c1ccccc1
Assay readout: GI50
Val: 14.2 µM

Compound: COC(=O)C1=C2C3=C(C(=O)c4ccccc4C3=O)N(Cc3ccccc3)C2(OC(C)=O)C=CC1=O (stereo not drawn)
Assay readout: GI50
Val: 5.93 µM

Compound: C[C@@]12CCC[C@@](C)(C(=O)O)C1CC[C@]13C=C(CO)[C@](O)(CCC12)C3 (stereo partly drawn)
Assay readout: GI50
Val: > 100 µM

Compound: N#Cc1cc(-c2ccccc2)[nH]c1-c1nccc2ccccc12
Assay readout: GI50
Val: 18.1 µM

Compound: Cc1nc(NC(=O)COc2cccc(/C=C3\COc4ccccc4C3=O)c2)sc1C
Assay readout: GI50
Val: 3.19 µM

Compound: COc1c(Nc2ncc(Cl)c(N[C@@H]3[C@H]4C=CC(C4)[C@@H]3C(N)=O)n2)ccc2c1CC[C@@H](N1CCOCC1)CC2
Assay readout: GI50
Val: 4.19 µM

Compound: Nc1cccc(-c2nc3sccn3c2-c2ccnc(NCCCNS(=O)(=O)c3ccc(C(F)(F)F)cc3)n2)c1
Assay readout: GI50
Val: 4.58 µM

Compound: CCc1ccc(/C(C#N)=C/C=C/c2ccccc2)cc1
Assay readout: GI50
Val: 3.35 µM

Compound: COc1cc2c3c(n(CCCN=[N+]=[N-])c(=O)c2cc1OC)-c1ccc(N)cc1C3=O
Assay readout: GI50
Val: 0.0265 µM

Compound: CN(C)c1cc2c(cc1Sc1nc3c(N)nccc3n1CCNCC(C)(C)C)OCO2
Assay readout: GI50
Val: 0.376 µM

Compound: Nc1nn(C(=O)Nc2ccc(Cc3ccccc3)cc2)c2ccc(Cl)cc12
Assay readout: GI50
Val: 0.0658 µM

Compound: O=C(Nc1cccc(-n2cc(-c3ccncc3)c(-c3cc(O)cc(Cl)c3)n2)c1)Nc1ccc(Cl)c(Cl)c1
Assay readout: GI50
Val: 2.18 µM

Compound: Cc1cc(N2CCOCC2)nc(N(CCNc2ccnc3cc(Cl)ccc23)Cc2ccco2)n1
Assay readout: GI50
Val: 3.72 µM

Compound: Cc1oncc1C(=O)Nc1ccc(C(F)(F)F)cc1
Assay readout: GI50
Val: 24.8 µM

Compound: Oc1c(Cl)cc(C(c2cc(Cl)c(O)c(Cl)c2)C(c2cc(Cl)c(O)c(Cl)c2)c2cc(Cl)c(O)c(Cl)c2)cc1Cl
Assay readout: GI50
Val: 2.59 µM

Compound: C=C1C(=O)O[C@H]2[C@H]1CC/C(COC(=O)NCc1c[nH]c3ccc(OC)cc13)=C\CC[C@@]1(C)O[C@@H]21
Assay readout: GI50
Val: 3.76 µM

Compound: [Ce+3].[Cl-].[O-]/N=C(\c1ccccc1)c1ccccn1.[O-]/N=C(\c1ccccc1)c1ccccn1.[O-]/N=C(\c1ccccc1)c1ccccn1
Assay readout: GI50
Val: 47.1 µM

Compound: O=C(/C=C\c1cccc([N+](=O)[O-])c1)c1ccccc1
Assay readout: GI50
Val: 7.54 µM

Compound: CCOc1ccc(/C=N/Nc2cc(C)nc3ccc(Cl)cc23)cc1
Assay readout: GI50
Val: 2.06 µM

Compound: C=CC[Se]C(=O)c1ccccc1OC(C)=O
Assay readout: GI50
Val: 0.36 µM
